This collection of values is drawn from ChEMBL document CHEMBL4311958.

Task for the reader: assign each of the following compounds its reported ΔTm.
- Test system: Quadruplex DNA
- Experimental Protocol: Stabilization of 5'-DABCYL/3'-FAM labeled cMYC G-quadruplex oligonucleotide (unknown origin) assessed as change in melting temperature at 5 uM preincubated for 5 mins and measured after 5 mins by FRET assay
- Type: nucleic-acid assay
Write the number in °C without appending the unit.

Incoming: If you can, please state the reported ΔTm value of C=C(C)Cc1c(OCC(=O)NCC2CCCN2CC)ccc2c1c1ccnc3c4ccccc4c(=O)n2c13 (stereo not given) .
Outgoing: 3.4

Incoming: Would you mind doing `COc1ccc2c(c1OC)c(=O)n1c3ccccc3c3cc(C(=O)N4CCN(CCO)CC4)nc2c31` as well?
Outgoing: 0.8

Incoming: Would you mind doing `CN(C)Cc1c(O)ccc2c1c1ccnc3c4ccccc4c(=O)n2c13` as well?
Outgoing: 3.8

Incoming: Would you mind doing `CCN1CCN(C(=O)c2cc3c4ccccc4n4c(=O)c5ccccc5c(n2)c34)CC1` as well?
Outgoing: 1.2

Incoming: Would you mind doing `COc1ccc2c(c1OC)c(=O)n1c3ccc(OCC(=O)NCCCN4CCOCC4)cc3c3ccnc2c31` as well?
Outgoing: 4.9

###

- Tested on: Quadruplex DNA
- Experimental Protocol: Stabilization of 5'-DABCYL/3'-FAM labeled HTS G-quadruplex oligonucleotide (unknown origin) assessed as change in melting temperature at 5 uM preincubated for 5 mins and measured after 5 mins by FRET assay
- Type: nucleic-acid assay
Measured Parameter: ΔTm (°C)
Write the number in °C without appending the unit.

Incoming: Reported ΔTm for Quadruplex DNA, given `CN(C)Cc1c(O)ccc2c1c1ccnc3c4ccccc4c(=O)n2c13` ?
Outgoing: 3.3

Incoming: Would you mind doing `COc1ccc2c(c1OC)c(=O)n1c3ccccc3c3cc(C(=O)N4CCN(Cc5ccccc5)CC4)nc2c31` as well?
Outgoing: 0.5

Incoming: Would you mind doing `COc1ccc2c(c1OC)c(=O)n1c3ccc(OCC(=O)NCCCN4CCOCC4)cc3c3ccnc2c31` as well?
Outgoing: 4.5

Incoming: Would you mind doing `CCN1CCN(C(=O)c2cc3c4ccccc4n4c(=O)c5ccccc5c(n2)c34)CC1` as well?
Outgoing: 1.5

Incoming: Would you mind doing `COc1ccc2c(c1OC)c(=O)n1c3ccccc3c3cc(C(=O)N4CCN(CCO)CC4)nc2c31` as well?
Outgoing: 0.6

Incoming: Would you mind doing C=C(C)Cc1c(OCC(=O)NCC2CCCN2CC)ccc2c1c1ccnc3c4ccccc4c(=O)n2c13 (stereo unspecified) as well?
Outgoing: 1.7

###

- Measured On: Quadruplex DNA
- Experimental Protocol: Binding affinity to 5'-biotin-TEG labeled cKIT1 G-quadruplex oligonucleotide (unknown origin) by SPR analysis
- Format: nucleic-acid assay
Measured Parameter: pKd
Note: pKd values are expressed as the negative base-10 logarithm of concentration in M.

Incoming: If you can, please state the reported pKd value of `COc1ccc2c(c1OC)c(=O)n1c3ccc(OCC(=O)NCCCN4CCOCC4)cc3c3ccnc2c31` .
Outgoing: 6.29
